B1: MFF (parent)
chain: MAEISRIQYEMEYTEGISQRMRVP

Variants of: B1
Assay: protein stability index of a GFP-peptide fusion (GPS, HEK-293T) (PSI 1-6); higher = more stable;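 also: lentivirally expressed fusions sorted by FACS into six bins by GFP to DsRed ratio, PSI derived from sequencing read proportions per bin multiplied by bin number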
Settings: c terminus: a fixed tail appended
List of protein stability index values.
Measured quantity: protein stability index

[[record]]
residue_codes = "MAEISRIQYEMEYTEGLSQRMRVP [I17L]"
measured_quantity = "protein stability index"
value_measured = 2.52

[[record]]
residue_codes = "MAEISRIQYEMEYTEGISQMMRVP [R20M]"
measured_quantity = "protein stability index"
value_measured = 2.13

[[record]]
residue_codes = "MAEISRIQYEMEYTLGISQRMRVP [E15L]"
measured_quantity = "protein stability index"
value_measured = 1.66

[[record]]
residue_codes = "MAEISRIQYEMWYTEGISQRMRVP [E12W]"
measured_quantity = "protein stability index"
value_measured = 2.12

[[record]]
residue_codes = "MANISRIQYEMEYTEGISQRMRVP [E3N]"
measured_quantity = "protein stability index"
value_measured = 2.41

[[record]]
residue_codes = "MAEISRIQYEMEYTEGISQRMKVP [R22K]"
measured_quantity = "protein stability index"
value_measured = 2.8

[[record]]
residue_codes = "MAEISRIPYEMEYTEGISQRMRVP [Q8P]"
measured_quantity = "protein stability index"
value_measured = 3.03

[[record]]
residue_codes = "MTEISRIQYEMEYTEGISQRMRVP [A2T]"
measured_quantity = "protein stability index"
value_measured = 2.74

[[record]]
residue_codes = "WAEISRIQYEMEYTEGISQRMRVP [M1W]"
measured_quantity = "protein stability index"
value_measured = 2.35

[[record]]
residue_codes = "MAEISRIQYETEYTEGISQRMRVP [M11T]"
measured_quantity = "protein stability index"
value_measured = 3.15

[[record]]
residue_codes = "MAEISRIQYEMEYTEGISQHMRVP [R20H]"
measured_quantity = "protein stability index"
value_measured = 2.22

[[record]]
residue_codes = "MAEISRIQYEMLYTEGISQRMRVP [E12L]"
measured_quantity = "protein stability index"
value_measured = 1.74

[[record]]
residue_codes = "MAKISRIQYEMEYTEGISQRMRVP [E3K]"
measured_quantity = "protein stability index"
value_measured = 2.3

[[record]]
residue_codes = "MAEITRIQYEMEYTEGISQRMRVP [S5T]"
measured_quantity = "protein stability index"
value_measured = 2.02

[[record]]
residue_codes = "MAEISRIQYEMEYTEGISSRMRVP [Q19S]"
measured_quantity = "protein stability index"
value_measured = 2.56

[[record]]
residue_codes = "MAEISCIQYEMEYTEGISQRMRVP [R6C]"
measured_quantity = "protein stability index"
value_measured = 2.97

[[record]]
residue_codes = "MAEIKRIQYEMEYTEGISQRMRVP [S5K]"
measured_quantity = "protein stability index"
value_measured = 2.17

[[record]]
residue_codes = "MAEISRIQYEMEVTEGISQRMRVP [Y13V]"
measured_quantity = "protein stability index"
value_measured = 3.12

[[record]]
residue_codes = "MAEISRIQYFMEYTEGISQRMRVP [E10F]"
measured_quantity = "protein stability index"
value_measured = 1.96

[[record]]
residue_codes = "MAEISRIDYEMEYTEGISQRMRVP [Q8D]"
measured_quantity = "protein stability index"
value_measured = 2.85

[[record]]
residue_codes = "MAEFSRIQYEMEYTEGISQRMRVP [I4F]"
measured_quantity = "protein stability index"
value_measured = 2.56

[[record]]
residue_codes = "MAEISRIQYEMEYTEGISQRMCVP [R22C]"
measured_quantity = "protein stability index"
value_measured = 2.4

[[record]]
residue_codes = "MAEISRIQYEMEYTEGVSQRMRVP [I17V]"
measured_quantity = "protein stability index"
value_measured = 2.96

[[record]]
residue_codes = "MAEISRSQYEMEYTEGISQRMRVP [I7S]"
measured_quantity = "protein stability index"
value_measured = 3.51

[[record]]
residue_codes = "MAEISREQYEMEYTEGISQRMRVP [I7E]"
measured_quantity = "protein stability index"
value_measured = 4.11

[[record]]
residue_codes = "MAEIRRIQYEMEYTEGISQRMRVP [S5R]"
measured_quantity = "protein stability index"
value_measured = 2.75

[[record]]
residue_codes = "MAEISRIQYEPEYTEGISQRMRVP [M11P]"
measured_quantity = "protein stability index"
value_measured = 3.2

[[record]]
residue_codes = "MAEISRIQYEMKYTEGISQRMRVP [E12K]"
measured_quantity = "protein stability index"
value_measured = 2.64

[[record]]
residue_codes = "MAEISRIQYEMEYTEGISQDMRVP [R20D]"
measured_quantity = "protein stability index"
value_measured = 3.56

[[record]]
residue_codes = "MAEISRIQYEMEYTEGISQRRRVP [M21R]"
measured_quantity = "protein stability index"
value_measured = 3.9

[[record]]
residue_codes = "MAEIYRIQYEMEYTEGISQRMRVP [S5Y]"
measured_quantity = "protein stability index"
value_measured = 1.6

[[record]]
residue_codes = "MAEISRIQYEMEYTEGISVRMRVP [Q19V]"
measured_quantity = "protein stability index"
value_measured = 1.62

[[record]]
residue_codes = "MAEISRIQYEMEYTEGISQRVRVP [M21V]"
measured_quantity = "protein stability index"
value_measured = 2.79

[[record]]
residue_codes = "IAEISRIQYEMEYTEGISQRMRVP [M1I]"
measured_quantity = "protein stability index"
value_measured = 2.36

[[record]]
residue_codes = "MAEIERIQYEMEYTEGISQRMRVP [S5E]"
measured_quantity = "protein stability index"
value_measured = 2.95

[[record]]
residue_codes = "NAEISRIQYEMEYTEGISQRMRVP [M1N]"
measured_quantity = "protein stability index"
value_measured = 3.16

[[record]]
residue_codes = "MIEISRIQYEMEYTEGISQRMRVP [A2I]"
measured_quantity = "protein stability index"
value_measured = 2.17

[[record]]
residue_codes = "MAEISRIQYEMEYREGISQRMRVP [T14R]"
measured_quantity = "protein stability index"
value_measured = 2.35

[[record]]
residue_codes = "MAEIDRIQYEMEYTEGISQRMRVP [S5D]"
measured_quantity = "protein stability index"
value_measured = 3.39

[[record]]
residue_codes = "MAEYSRIQYEMEYTEGISQRMRVP [I4Y]"
measured_quantity = "protein stability index"
value_measured = 2.8

[[record]]
residue_codes = "MAEISRIQYCMEYTEGISQRMRVP [E10C]"
measured_quantity = "protein stability index"
value_measured = 1.99

[[record]]
residue_codes = "MAEISRISYEMEYTEGISQRMRVP [Q8S]"
measured_quantity = "protein stability index"
value_measured = 2.71

[[record]]
residue_codes = "MAEISRIQYEMEYTEGISQYMRVP [R20Y]"
measured_quantity = "protein stability index"
value_measured = 1.58

[[record]]
residue_codes = "MAEISRDQYEMEYTEGISQRMRVP [I7D]"
measured_quantity = "protein stability index"
value_measured = 3.8

[[record]]
residue_codes = "MAEISRIQYEMEYTEGIIQRMRVP [S18I]"
measured_quantity = "protein stability index"
value_measured = 1.66

[[record]]
residue_codes = "MAEISRIQYEMIYTEGISQRMRVP [E12I]"
measured_quantity = "protein stability index"
value_measured = 1.28

[[record]]
residue_codes = "MYEISRIQYEMEYTEGISQRMRVP [A2Y]"
measured_quantity = "protein stability index"
value_measured = 1.95

[[record]]
residue_codes = "MAEISRIQYEMEYTEGIYQRMRVP [S18Y]"
measured_quantity = "protein stability index"
value_measured = 1.92

[[record]]
residue_codes = "MAEISRIQYEMEYTEGISQRWRVP [M21W]"
measured_quantity = "protein stability index"
value_measured = 1.91

[[record]]
residue_codes = "MAEISRIQYEMEYTEGIGQRMRVP [S18G]"
measured_quantity = "protein stability index"
value_measured = 2.51

[[record]]
residue_codes = "MAEISRIQYEMEYTEGILQRMRVP [S18L]"
measured_quantity = "protein stability index"
value_measured = 1.82

[[record]]
residue_codes = "MAEISRIQYEMEYTEGISQRTRVP [M21T]"
measured_quantity = "protein stability index"
value_measured = 3.33

[[record]]
residue_codes = "MAEISRIQYEMEYTEGISGRMRVP [Q19G]"
measured_quantity = "protein stability index"
value_measured = 2.81

[[record]]
residue_codes = "HAEISRIQYEMEYTEGISQRMRVP [M1H]"
measured_quantity = "protein stability index"
value_measured = 2.92

[[record]]
residue_codes = "MAEISRIQYEMEYTEGISQWMRVP [R20W]"
measured_quantity = "protein stability index"
value_measured = 1.67

[[record]]
residue_codes = "MAEISRIQYEMEPTEGISQRMRVP [Y13P]"
measured_quantity = "protein stability index"
value_measured = 3.69

[[record]]
residue_codes = "MAEISRIQYEMEYTEGIMQRMRVP [S18M]"
measured_quantity = "protein stability index"
value_measured = 1.94

[[record]]
residue_codes = "MAEISIIQYEMEYTEGISQRMRVP [R6I]"
measured_quantity = "protein stability index"
value_measured = 1.63

[[record]]
residue_codes = "MAEISRIQCEMEYTEGISQRMRVP [Y9C]"
measured_quantity = "protein stability index"
value_measured = 2.78

[[record]]
residue_codes = "MAEISRIEYEMEYTEGISQRMRVP [Q8E]"
measured_quantity = "protein stability index"
value_measured = 3.02

[[record]]
residue_codes = "MAEISRIQYEIEYTEGISQRMRVP [M11I]"
measured_quantity = "protein stability index"
value_measured = 2.16

[[record]]
residue_codes = "MAEISRIQYEMEYWEGISQRMRVP [T14W]"
measured_quantity = "protein stability index"
value_measured = 1.97

[[record]]
residue_codes = "MAEISRIQYEMEYTEGISWRMRVP [Q19W]"
measured_quantity = "protein stability index"
value_measured = 2.16

[[record]]
residue_codes = "MAEISRIQYEMEYTEGISQRMRYP [V23Y]"
measured_quantity = "protein stability index"
value_measured = 2.41

[[record]]
residue_codes = "MAEISRIQYEMEYTCGISQRMRVP [E15C]"
measured_quantity = "protein stability index"
value_measured = 1.46

[[record]]
residue_codes = "MAEISRIQYEMMYTEGISQRMRVP [E12M]"
measured_quantity = "protein stability index"
value_measured = 1.84

[[record]]
residue_codes = "MAEISRIQYEMEYTEGIHQRMRVP [S18H]"
measured_quantity = "protein stability index"
value_measured = 2.13

[[record]]
residue_codes = "MAEISRIQYEMEYTEGISQNMRVP [R20N]"
measured_quantity = "protein stability index"
value_measured = 2.46

[[record]]
residue_codes = "MAEISRIQYHMEYTEGISQRMRVP [E10H]"
measured_quantity = "protein stability index"
value_measured = 2.42

[[record]]
residue_codes = "MAEISRIQYEMEYTEGISQRMRVK [P24K]"
measured_quantity = "protein stability index"
value_measured = 2.98

[[record]]
residue_codes = "MAEISRIQYEMEYTEGISQRMIVP [R22I]"
measured_quantity = "protein stability index"
value_measured = 1.84

[[record]]
residue_codes = "MAEISRIQYQMEYTEGISQRMRVP [E10Q]"
measured_quantity = "protein stability index"
value_measured = 2.76

[[record]]
residue_codes = "MAAISRIQYEMEYTEGISQRMRVP [E3A]"
measured_quantity = "protein stability index"
value_measured = 1.85

[[record]]
residue_codes = "MAEISRIQYEMEYQEGISQRMRVP [T14Q]"
measured_quantity = "protein stability index"
value_measured = 3.08

[[record]]
residue_codes = "MAEISRIVYEMEYTEGISQRMRVP [Q8V]"
measured_quantity = "protein stability index"
value_measured = 1.45

[[record]]
residue_codes = "MAEASRIQYEMEYTEGISQRMRVP [I4A]"
measured_quantity = "protein stability index"
value_measured = 3.38

[[record]]
residue_codes = "MAEISRIQYEMEYTENISQRMRVP [G16N]"
measured_quantity = "protein stability index"
value_measured = 2.72

[[record]]
residue_codes = "MAEISRIQYEMEYTEGISQAMRVP [R20A]"
measured_quantity = "protein stability index"
value_measured = 2.01

[[record]]
residue_codes = "GAEISRIQYEMEYTEGISQRMRVP [M1G]"
measured_quantity = "protein stability index"
value_measured = 3.14

[[record]]
residue_codes = "MAEISRIYYEMEYTEGISQRMRVP [Q8Y]"
measured_quantity = "protein stability index"
value_measured = 1.75

[[record]]
residue_codes = "MAEISYIQYEMEYTEGISQRMRVP [R6Y]"
measured_quantity = "protein stability index"
value_measured = 1.53

[[record]]
residue_codes = "MAEISRIQYEMEYTELISQRMRVP [G16L]"
measured_quantity = "protein stability index"
value_measured = 1.9

[[record]]
residue_codes = "MAEISRIQYEMEYTEGPSQRMRVP [I17P]"
measured_quantity = "protein stability index"
value_measured = 3.57

[[record]]
residue_codes = "MAEISRIQYEMEYTHGISQRMRVP [E15H]"
measured_quantity = "protein stability index"
value_measured = 2.21

[[record]]
residue_codes = "MAEISRIQKEMEYTEGISQRMRVP [Y9K]"
measured_quantity = "protein stability index"
value_measured = 2.95

[[record]]
residue_codes = "MAFISRIQYEMEYTEGISQRMRVP [E3F]"
measured_quantity = "protein stability index"
value_measured = 1.76

[[record]]
residue_codes = "MAEISRIQYEMEYTEGCSQRMRVP [I17C]"
measured_quantity = "protein stability index"
value_measured = 2.92

